kinase still bound, per cent of control reference
system: UniProt:O14730
Sequence (O14730 whole entry, looked up): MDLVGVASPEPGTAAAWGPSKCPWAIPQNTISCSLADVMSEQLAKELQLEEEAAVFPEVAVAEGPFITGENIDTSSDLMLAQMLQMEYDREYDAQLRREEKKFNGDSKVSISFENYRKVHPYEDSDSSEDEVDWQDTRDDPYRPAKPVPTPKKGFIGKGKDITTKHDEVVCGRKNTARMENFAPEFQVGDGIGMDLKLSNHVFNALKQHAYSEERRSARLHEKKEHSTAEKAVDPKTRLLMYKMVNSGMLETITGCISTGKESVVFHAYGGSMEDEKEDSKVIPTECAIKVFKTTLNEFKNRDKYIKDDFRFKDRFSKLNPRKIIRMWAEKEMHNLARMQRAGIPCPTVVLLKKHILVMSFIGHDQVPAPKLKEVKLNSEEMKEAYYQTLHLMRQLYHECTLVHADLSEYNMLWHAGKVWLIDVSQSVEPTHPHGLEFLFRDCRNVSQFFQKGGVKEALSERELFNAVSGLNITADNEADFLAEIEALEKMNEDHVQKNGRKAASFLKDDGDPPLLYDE
assay.summary: KINOMEscan competition binding
conditions.used: compound 10.0 µM
Reply numerically in %, unit not repeated.

INSERT INTO assay_data (compound, measured_value) VALUES
  ('N#C/C(=C1/Nc2ccccc2S1)c1ccnc(NCCc2cccnc2)n1', 33);

Exercise: Name the recorded kinase still bound, per cent of control of the item CCCS(=O)(=O)Nc1ccc(F)c(C(=O)c2c[nH]c3ncc(Cl)cc23)c1F in your answer.
Key: 100

Exercise: Name the recorded kinase still bound, per cent of control of the item CCc1nc(-c2cccc(C)c2)c(-c2ccnc(NC(=O)c3ccccc3)c2)s1 in your answer.
Key: 100

Exercise: Name the recorded kinase still bound, per cent of control of the item COc1cc(N2CCC(C(N)=O)CC2)ccc1Nc1nc(N)c(Cl)c(Nc2ccccc2S(=O)(=O)C(C)C)n1 in your answer.
Key: 100

Exercise: Name the recorded kinase still bound, per cent of control of the item CC(=O)c1c(C)c2cnc(Nc3ccc(N4CCNCC4)cn3)nc2n(C2CCCC2)c1=O in your answer.
Key: 64

Exercise: Name the recorded kinase still bound, per cent of control of the item CCN1CCN(Cc2ccc(NC(=O)c3ccc(C)c(/C=C/c4cnc5[nH]ccc5c4OC)c3)cc2C(F)(F)F)CC1 in your answer.
Key: 0.35

Exercise: Name the recorded kinase still bound, per cent of control of the item Cc1cn(-c2cc(C(=O)Nc3ccc(C)c(NC(=O)c4ccno4)c3)cc(C(F)(F)F)c2)cn1 in your answer.
Key: 100

Exercise: Name the recorded kinase still bound, per cent of control of the item COc1cc2c(Nc3ccc(NC(=O)c4ccccc4)cc3)ncnc2cc1OCCCN1CCOCC1 in your answer.
Key: 100

Exercise: Name the recorded kinase still bound, per cent of control of the item CC1=C(C(=O)Nc2cc3cn[nH]c3cc2F)C(c2ccc(C(F)(F)F)cc2)CC(=O)N1 (stereo not given) in your answer.
Key: 100

Exercise: Name the recorded kinase still bound, per cent of control of the item CCN(CCO)CCCOc1ccc2c(Nc3cc(CC(=O)Nc4cccc(F)c4)[nH]n3)ncnc2c1 in your answer.
Key: 100
